# assay-protocol: Pharmacokinetics in Sprague Dawley rats (plasma and brain concentrations, PK parameters)
# Assay type: in vivo
# measurement-conditions: Sprague Dawley, rat, plasma, po, 10 mg/kg, Sprague Dawley rat, po 10 mg/kg, plasma, 0.25 h, mean of 3 rats; read-out: Concentration Mean
assay-metric: concentration at 0.25 h (ng/mL)
One number for each entry, in ng/mL.

Q: What measured concentration at 0.25 h goes with O=C1CCC(N2C(=O)c3cccc(NCCOCCOCCNCc4ccc(-n5cc(NC(=O)c6coc(-c7ccnc(NCC8CC8)c7)n6)c(C(F)F)n5)cc4)c3C2=O)C(=O)N1 (stereo not shown) ?
Ans: 0.458

* * *

# test-target: IRAK4 (Homo sapiens, UniProt Q9NWZ3)
# Sequence (Q9NWZ3 1-460): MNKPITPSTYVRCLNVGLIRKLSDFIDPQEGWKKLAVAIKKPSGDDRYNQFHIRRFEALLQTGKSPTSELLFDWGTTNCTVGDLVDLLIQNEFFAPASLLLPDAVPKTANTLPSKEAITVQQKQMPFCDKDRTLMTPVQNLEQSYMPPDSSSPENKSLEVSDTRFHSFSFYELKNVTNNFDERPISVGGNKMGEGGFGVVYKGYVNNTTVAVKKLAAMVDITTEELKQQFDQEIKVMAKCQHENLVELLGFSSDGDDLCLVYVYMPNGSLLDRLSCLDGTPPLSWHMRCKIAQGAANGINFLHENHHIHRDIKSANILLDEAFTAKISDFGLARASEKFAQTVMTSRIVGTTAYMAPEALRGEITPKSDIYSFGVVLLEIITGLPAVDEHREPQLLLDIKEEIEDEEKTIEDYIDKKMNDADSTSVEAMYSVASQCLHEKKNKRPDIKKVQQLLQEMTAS
# assay-protocol: OCI-LY-10 degradation assay (western blot, % IRAK4 degraded after 4 hours)
# Type: cell-based
# Set-up: endogenous in cells; host or cells: OCI-LY10
# measurement-conditions: OCI-LY10 cells, 4 hours, 0.01 uM compound
assay-metric: OCI-LY10 % IRAK4 Degradation (0.01 uM)

Reference set, count: 4
• CN(CCOCCOCCCc1ccc2c(c1)C(=O)N(C1CCC(=O)NC1=O)C2=O)C(=O)c1ccc(-n2cc(NC(=O)c3coc(-c4ccncc4)n3)c(C(N)=O)n2)cc1 (centres unmarked) = B (>20-50% degradation)
• CN(CCOCCCc1ccc2c(c1)C(=O)N(C1CCC(=O)NC1=O)C2=O)Cc1ccc(-n2cc(NC(=O)c3coc(-c4ccnc(NCC5CC5)c4)n3)c(C(F)F)n2)cc1 (centres unmarked) = B (>20-50% degradation)
• O=C1CCC(N2C(=O)c3ccc(NC4CCN(CCOCCOCCNCc5ccc(-n6cc(NC(=O)c7coc(-c8ccnc(NCC9CC9)c8)n7)c(C(F)F)n6)cc5)CC4)cc3C2=O)C(=O)N1 (centres unmarked) = C (<20% degradation)
• Cn1c(=O)n(C2CCC(=O)NC2=O)c2cccc(CCCOCCOCCNC(=O)c3ccc(-n4cc(NC(=O)c5coc(-c6ccnc(NCC(F)(F)F)c6)n5)c(C(N)=O)n4)cc3)c21 (centres unmarked) = C (<20% degradation)

The record that follows has no OCI-LY10 % IRAK4 Degradation (0.01 uM) shown yet.
Q: What measured OCI-LY10 % IRAK4 Degradation (0.01 uM) goes with CN(CCOCCCc1ccc2c(c1)C(=O)N(C1CCC(=O)NC1=O)C2=O)Cc1ccc(-n2cc(NC(=O)c3coc(-c4ccncc4)n3)c(C(F)F)n2)cc1 (centres unmarked) ?
Ans: C (<20% degradation)

* * *

# test-target: IRAK4 (Homo sapiens, UniProt Q9NWZ3)
# Sequence (Q9NWZ3 1-460): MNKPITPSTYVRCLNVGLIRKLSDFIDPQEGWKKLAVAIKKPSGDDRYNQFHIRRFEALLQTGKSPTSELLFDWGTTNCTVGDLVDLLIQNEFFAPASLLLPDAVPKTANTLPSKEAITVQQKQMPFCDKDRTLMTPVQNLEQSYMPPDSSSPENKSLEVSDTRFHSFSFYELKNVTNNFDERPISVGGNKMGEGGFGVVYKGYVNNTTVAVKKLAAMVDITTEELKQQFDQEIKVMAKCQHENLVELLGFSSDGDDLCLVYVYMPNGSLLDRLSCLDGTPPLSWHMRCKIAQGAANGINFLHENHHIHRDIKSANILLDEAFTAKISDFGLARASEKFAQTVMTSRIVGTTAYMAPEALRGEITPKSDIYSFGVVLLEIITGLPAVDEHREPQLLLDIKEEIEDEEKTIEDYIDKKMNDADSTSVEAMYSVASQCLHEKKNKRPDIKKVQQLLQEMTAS
# assay-protocol: OCI-LY-10 degradation assay (western blot, % IRAK4 degraded after 4 hours)
# Type: cell-based
# Design: endogenous in cells; host or cells: OCI-LY10
# measurement-conditions: OCI-LY10 cells, 4 hours, 0.1 uM compound
assay-metric: OCI-LY10 % IRAK4 Degradation (0.1 uM)

• O=C1CCC(N2C(=O)c3ccc(NC4CCN(CCOCCOCCNC(=O)c5ccc(-n6cc(NC(=O)c7coc(-c8ccnc(NCC9CC9)c8)n7)c(C(F)F)n6)cc5)CC4)cc3C2=O)C(=O)N1 (centres unmarked) = B (>20-50% degradation)
• O=C1CCC(N2C(=O)c3ccc(NC4CCN(CCOCCOCCOCCNC(=O)c5ccc(-n6cc(NC(=O)c7coc(-c8ccnc(NCC9CC9)c8)n7)c(C(F)F)n6)cc5)CC4)cc3C2=O)C(=O)N1 (centres unmarked) = B (>20-50% degradation)
• CN(CCCCCCc1cccc2c1C(=O)N(C1CCC(=O)NC1=O)C2=O)Cc1ccc(-n2cc(NC(=O)c3coc(-c4ccnc(NCC5CC5)c4)n3)c(C(N)=O)n2)cc1 (centres unmarked) = B (>20-50% degradation)

* * *

Could you please report measured DC50 for the items listed next?
# test-target: IRAK4 (Homo sapiens, UniProt Q9NWZ3)
# assay-protocol: OCI-LY-10 MSD assay for IRAK4 DC50
# Assay type: cell-based
# Set-up: endogenous in cells; host or cells: OCI-LY10
# measurement-conditions: OCI-LY10 cells, 4 hr incubation, concentration required to degrade 50% of protein
# Experimental: A MSD assay was run to determine the concentration of compound required to degrade 50% of protein (DC50). Day 1 • Compounds were reconstituted to 10 mM in stock solutions. […] Data Analysis • The remaining activity was calculated following the formula below: Calculate • The DC50 was calculated by fitting the Curve using Xlfit (v5.3.1.3), equation 201: Y=Bottom+(Top−Bottom)/(1+10^((Log IC50−X)*HillSlope)) […]

- O=C1CCC(N2C(=O)c3cccc(NCCOCCOCCOCC(=O)N4C[C@H](OC(=O)[C@@H]5CCCN5)C[C@H]4C(=O)NCc4ccc(-n5cc(NC(=O)c6coc(-c7ccnc(NCC8CC8)c7)n6)c(C(F)F)n5)cc4)c3C2=O)C(=O)N1 (stereo partly drawn): > 1000 nM
- CN[C@@H](C)C(=O)N[C@H](C(=O)N1Cc2cc(OCCOCCOCCOCCOCCOCCNCc3ccc(-n4cc(NC(=O)c5coc(-c6ccnc(NCC7CC7)c6)n5)c(C(F)F)n4)cc3)ccc2C[C@H]1C(=O)N[C@@H]1CCCc2ccccc21)C(C)(C)C: > 1000 nM
- Cn1c(=O)n(C2CCC(=O)NC2=O)c2ccc(CCCOCCNCc3ccc(-n4cc(NC(=O)c5coc(-c6ccnc(NCC(F)(F)F)c6)n5)c(C(F)F)n4)cc3)cc21 (stereo not drawn): < 50 nM
- Cn1c(=O)n(C2CCC(=O)NC2=O)c2ccc(CCCCCCC(=O)N3CCN(C4CCC(Nc5ncnn6ccc(C7CCOCC7)c56)CC4)CC3)cc21 (stereo not drawn): > 1000 nM
- O=C1CCC(N2C(=O)c3ccc(N4CCN(CCOCCOCCOCCNCc5ccc(-n6cc(NC(=O)c7coc(-c8ccnc(NCC9CC9)c8)n7)c(C(F)F)n6)cc5)CC4)cc3C2=O)C(=O)N1 (stereo not drawn): 100 to 500 nM
- O=C1CCC(n2c(=O)oc3c(CCCOCCCNC(=O)c4ccc(-n5cc(NC(=O)c6coc(-c7ccnc(NCC8CC8)c7)n6)c(C(F)F)n5)cc4)cccc32)C(=O)N1 (stereo not drawn): < 50 nM
- O=C1CCC(N2C(=O)c3cccc(CCCNCc4ccc(-n5cc(NC(=O)c6coc(-c7ccncc7)n6)c(C(F)F)n5)cc4)c3C2=O)C(=O)N1 (stereo not drawn): > 1000 nM
- Cn1c(=O)n(C2CCC(=O)NC2=O)c2cccc(CCCCOCCCCNCc3ccc(-n4cc(NC(=O)c5coc(-c6ccnc(NCC7CC7)c6)n5)c(C(F)F)n4)cc3)c21 (stereo not drawn): 50 to 100 nM
- Cn1c(=O)n(C2CCC(=O)NC2=O)c2ccc(CCCOCCCOCCCNCc3ccc(-n4cc(NC(=O)c5coc(-c6ccnc(NCC7CC7)c6)n5)c(C(F)F)n4)cc3)cc21 (stereo not drawn): < 50 nM
- Cn1cc(NC(=O)c2coc(-c3ccnc(NCC(F)(F)F)c3)n2)c(CNCCCOCC(C)(C)COCCCc2cccc3c2n(C)c(=O)n3C2CCC(=O)NC2=O)n1 (stereo not drawn): > 1000 nM

Please report DC50 for every entry that follows.
1. O=C1CCC(N2C(=O)c3ccc(CCCNCc4ccc(-n5cc(NC(=O)c6coc(-c7ccnc(NCC8CC8)c7)n6)c(C(F)F)n5)cc4)cc3C2=O)C(=O)N1 (stereo not drawn)
2. O=C1CCC(N2C(=O)c3cccc(NC4CCN(CCOCCNC(=O)c5ccc(-n6cc(NC(=O)c7coc(-c8ccnc(NCC9CC9)c8)n7)c(C(F)F)n6)cc5)CC4)c3C2=O)C(=O)N1 (stereo not drawn)
3. Cn1c(=O)n([C@H]2CCC(=O)NC2=O)c2cccc(CCCOCCOCCNCc3ccc(-n4cc(NC(=O)c5coc(-c6ccnc(NCC(F)(F)F)c6)n5)c(C(N)=O)n4)cc3)c21
4. Cn1c(=O)n(C2CCC(=O)NC2=O)c2cccc(CCCOCCOCCOCCOCCN[C@H]3CC[C@H](Nc4ncnc5[nH]cc(C6CCOCC6)c45)CC3)c21 (stereo partly drawn)
5. O=C1CCC(N2C(=O)c3cccc(NC4CCN(CCOCCOCCOCCNC(=O)c5ccc(-n6cc(NC(=O)c7coc(-c8ccnc(NCC9CC9)c8)n7)c(C(F)F)n6)cc5)CC4)c3C2=O)C(=O)N1 (stereo not drawn)
6. NC(=O)c1nn(CCOCCOCCOCCOCCNc2cccc3c2C(=O)N(C2CCC(=O)NC2=O)C3=O)cc1NC(=O)c1coc(-c2ccnc(NCC3CC3)c2)n1 (stereo not drawn)
7. Cc1ncsc1-c1ccc(CNC(=O)[C@@H]2C[C@@H](O)CN2C(=O)[C@@H](NCCOCCOCCOCCNC(=O)C2CCC(n3cc(NC(=O)c4coc(-c5ccnc(NCC(F)(F)F)c5)n4)c(C(N)=O)n3)CC2)C(C)(C)C)cc1 (stereo partly drawn)

Ans:
["> 1000 nM", "< 50 nM", "< 50 nM", "> 1000 nM", "< 50 nM", "> 1000 nM", "> 1000 nM"]

Please report DC50 for every entry that follows.
1. O=C1CCC(N2Cc3cc(N4CCN(CCOCCOCCNCc5ccc(-n6cc(NC(=O)c7coc(-c8ccnc(NCC9CC9)c8)n7)c(C(F)F)n6)cc5)CC4)ccc3C2=O)C(=O)N1 (stereo not drawn)
2. O=C1CCC(N2C(=O)c3cccc(N4CCN(CCOCCNCc5ccc(-n6cc(NC(=O)c7coc(-c8ccnc(NCC9CC9)c8)n7)c(C(F)F)n6)cc5)CC4)c3C2=O)C(=O)N1 (stereo not drawn)
3. O=C1CCC(N2C(=O)c3cccc(NCCOCCN4CCO[C@H](CNC(=O)c5ccc(-n6cc(NC(=O)c7coc(-c8ccnc(NCC(F)(F)F)c8)n7)c(C(F)F)n6)cc5)C4)c3C2=O)C(=O)N1 (stereo partly drawn)

Ans:
1: 50 to 100 nM; 2: 100 to 500 nM; 3: 50 to 100 nM

Q: What measured DC50 goes with CN(CCOCCOCCCc1cccc2c1C(=O)N(C1CCC(=O)NC1=O)C2=O)C(=O)c1ccc(-n2cc(NC(=O)c3coc(-c4ccnc(NCC5CC5)c4)n3)c(C(N)=O)n2)cc1 (stereo not drawn) ?
Ans: < 50 nM

FYI, the data here is from patent US10874743B2.
